Taken from patent US20090170886A1.

Biological target: hAR (human androgen receptor, baculovirus/Sf9 generated extracts) (Homo sapiens)
Construct: made in house; host or cells: baculovirus/Sf9 insect cells (crude extract)
Assay: AR Binding Assay (competitive binding with 3H-DHT tracer)
Details: AR Binding IC50, hAR extract, 1 nM 3H-DHT, one hour at 4° C.; mean of multiple tests
Method: The compounds of Formula I have affinity for the androgen receptor. […] The description below describes how the assay was carried out. Competitive binding analysis was performed on baculovirus/Sf9 generated hAR extracts in the presence or absence of different concentrations of test agent and a fixed concentration of ^3H-dihydrotestosterone (^3H-DHT) as tracer. […] Compound binding affinity to the hAR is expressed as the concentration of compound at which one half of the maximum binding is inhibited. […]
Listed here are compounds together with their documented IC50.

Prompt: Quick one: IC50 of Cc1cccc(COc2ccc(C#N)c(Cl)c2)c1 ?
Completion: 74 nM

Prompt: Entry under review: C=CCC(Oc1ccc(C#N)c(C(F)(F)F)c1)c1cccc(O)c1 (racemic) [Example 17] . Reported IC50?
Completion: 14 nM

Prompt: Find the recorded IC50 belonging to Cc1ccc(C)c(C(C)Oc2ccc(C#N)c(Cl)c2)c1 (centres unmarked) and report it.
Completion: 61 nM

Prompt: Given the entry CC(Oc1ccc(C#N)c(C(F)(F)F)c1)c1cccc(O)c1 (racemic) [Example 8] , report its measured IC50.
Completion: 21 nM

Prompt: Field request: IC50 | item: C=CCC(Oc1ccc(C#N)c(C(F)(F)F)c1)c1cccc(O)c1 (single isomer, unassigned; (-)) [Example 19]
Completion: 185 nM

---

molecular target: androgen receptor in MDA-MB453-MMTV clone 54-19 cells (Homo sapiens); test: AR Antagonist Cell Assay (MMTV-luciferase reporter, DHT-induced); details: MDA-MB453-MMTV clone 54-19, 100 pM DHT, 17 hr; mean of multiple tests
measurement-name: pIC50
As a rule, pIC50 stands for the negative log10 of the concentration, concentration in M.

Example cases with answers are listed next.
C[C@@H](Oc1ccc(C#N)c(C(F)(F)F)c1)c1ccccn1 [Example 36] : 7.55
Cc1ccc(C(CC(C)C)Oc2ccc(C#N)c(C(F)(F)F)c2)cn1 (stereo not shown) [Example 89] : 7.25
COc1cccc(CCOc2ccc(C#N)c(C(F)(F)F)c2)c1 [Example 77] : 7.96
CC(Oc1ccc(C#N)c(C(F)(F)F)c1)c1ccccc1Cl (stereo not shown) [Example 22] : 6.99
N#Cc1ccc(OC(Cc2ccccc2)c2cccnc2)cc1C(F)(F)F (stereo not shown) [Example 91] : 6.47

Query compound follows.
Prompt: Item COc1cc(OCCc2cccc(F)c2)ccc1C#N [Example 71B] has what recorded pIC50?
Completion: 7.38

---

Molecular target: hAR (human androgen receptor, baculovirus/Sf9 generated extracts) (Homo sapiens, UniProt P10275)
Construct: made in house; host or cells: baculovirus/Sf9 insect cells (crude extract)
Sequence (P10275 1-920): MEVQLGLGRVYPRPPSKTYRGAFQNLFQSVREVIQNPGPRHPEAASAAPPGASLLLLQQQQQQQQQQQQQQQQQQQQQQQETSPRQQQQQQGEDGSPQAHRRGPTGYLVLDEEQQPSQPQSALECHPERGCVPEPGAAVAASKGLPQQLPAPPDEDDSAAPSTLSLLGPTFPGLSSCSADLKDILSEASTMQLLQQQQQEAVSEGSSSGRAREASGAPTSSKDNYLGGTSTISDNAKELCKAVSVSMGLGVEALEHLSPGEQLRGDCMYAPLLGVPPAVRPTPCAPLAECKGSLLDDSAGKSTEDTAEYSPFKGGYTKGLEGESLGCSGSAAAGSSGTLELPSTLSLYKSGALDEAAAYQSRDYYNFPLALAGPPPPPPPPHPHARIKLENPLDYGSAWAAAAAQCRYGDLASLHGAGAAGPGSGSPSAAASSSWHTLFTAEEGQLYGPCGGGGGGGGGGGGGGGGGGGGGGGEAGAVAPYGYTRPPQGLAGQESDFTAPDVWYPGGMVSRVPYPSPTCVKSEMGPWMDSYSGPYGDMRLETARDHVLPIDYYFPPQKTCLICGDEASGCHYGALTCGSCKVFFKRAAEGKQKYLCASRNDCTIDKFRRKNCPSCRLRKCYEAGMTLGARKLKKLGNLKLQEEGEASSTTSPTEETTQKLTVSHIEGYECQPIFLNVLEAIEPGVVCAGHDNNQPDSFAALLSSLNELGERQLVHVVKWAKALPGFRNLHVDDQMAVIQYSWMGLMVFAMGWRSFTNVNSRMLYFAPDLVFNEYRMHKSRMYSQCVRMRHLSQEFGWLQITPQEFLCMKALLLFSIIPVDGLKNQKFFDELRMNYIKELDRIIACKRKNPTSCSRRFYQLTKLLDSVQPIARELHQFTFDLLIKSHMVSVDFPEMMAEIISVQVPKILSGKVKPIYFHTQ
Assay: AR Binding Assay (competitive binding with 3H-DHT tracer)
Conditions: hAR extract, 1 nM 3H-DHT, one hour at 4° C.; mean of multiple tests; read-out: AR Binding IC50
Procedure: The compounds of Formula I have affinity for the androgen receptor. […] The description below describes how the assay was carried out. Competitive binding analysis was performed on baculovirus/Sf9 generated hAR extracts in the presence or absence of different concentrations of test agent and a fixed concentration of ^3H-dihydrotestosterone (^3H-DHT) as tracer. […] Compound binding affinity to the hAR is expressed as the concentration of compound at which one half of the maximum binding is inhibited. […]
measurement-name: IC50 (nM)
Supply the numeric figure in nM, leaving out any unit text.

A selection of reference data follows.
CC(C)CC(Oc1ccc(C#N)c(C(F)(F)F)c1)c1ccccn1 (stereo not shown) : 119
CC(Oc1ccc(C#N)c(C(F)(F)F)c1)c1cncc(O)c1 (stereo not shown) [Example 73] : 110
COc1ccc(CCOc2ccc(C#N)c(C(F)(F)F)c2)cc1 : 281

Prompt: I have this compound here, CC(Cc1ccccc1)(Oc1ccc(C#N)cc1Cl)c1ccccc1 (stereo not shown) , and I need its recorded IC50.
Completion: 377

Prompt: Field request: IC50 | item: CC(Oc1ccc(C#N)c(C(F)(F)F)c1)c1ccccc1Cl (stereo not shown)
Completion: 108

Prompt: Suppose we examine the compound CCOc1ccccc1COc1ccc(C#N)c(Cl)c1 ; what IC50 value has been reported?
Completion: 213

Prompt: Param item = N#Cc1ccc(OCc2cccc(O)c2)c(Cl)c1 ; retrieve measured IC50.
Completion: 76

---

Quick list: log10 IC50 per entry.
target: androgen receptor in MDA-MB453-MMTV clone 54-19 cells (Homo sapiens); assay: AR Antagonist Cell Assay (MMTV-luciferase reporter, DHT-induced); settings: MDA-MB453-MMTV clone 54-19, 100 pM DHT, 17 hr; mean of multiple tests
Remember, log10 of IC50, in nM.

CC(Oc1ccc(C#N)c(Cl)c1)c1ccccc1 (stereo not drawn) : 0.90
Cc1cccc(C(C)Oc2ccc(C#N)c(C(F)(F)F)c2)c1 (stereo not drawn) [Example 28] : 2.76
COCCOCOc1cncc(C(CC(C)C)Oc2ccc(C#N)c(C(F)(F)F)c2)c1 (stereo not drawn) : 2.31
CC(Oc1ccc(C#N)c(C(F)(F)F)c1)c1ccc(F)cc1 (stereo not drawn) : 1.96
CCC(Oc1ccc(C#N)c(C(F)(F)F)c1)c1cccnc1 (stereo not drawn) : 2.15
C#CC(Oc1ccc(C#N)c(C(F)(F)F)c1)c1ccccc1 (stereo not drawn) : 1.30
CCCC(Oc1ccc(C#N)c(C(F)(F)F)c1)c1cccc(O)c1 (single isomer, unassigned; (+)) [Example 15] : 2.01
C=CCC(Oc1ccc(C#N)c(C(F)(F)F)c1)c1cccc(O)c1 (racemic) [Example 17] : 2.02
CC(Oc1ccc(C#N)c(C(F)(F)F)c1)c1cccc(C#N)c1 (single isomer, unassigned) [Example 78] : 1.67
CC(Oc1ccc(C#N)c(C(F)(F)F)c1)c1ccccn1 (racemic) : 2.40

Prompt: If you can, please state the reported log10 IC50 value of CC(Oc1ccc(C#N)c(C(F)(F)F)c1)c1ccccc1F (stereo not drawn) .
Completion: 2.92

Prompt: Tell me the measured log10 IC50 of C[C@@H](Oc1ccc(C#N)c(C(F)(F)F)c1)c1ccccc1 , please.
Completion: 1.79

Prompt: Query: log10 IC50; subject: C=CC(Oc1ccc(C#N)c(C(F)(F)F)c1)c1cccc(O)c1 (stereo not drawn)
Completion: 2.62

---

Target: hAR (human androgen receptor, baculovirus/Sf9 generated extracts) (Homo sapiens, UniProt P10275)
Construct: made in house; host or cells: baculovirus/Sf9 insect cells (crude extract)
Sequence (P10275 1-920): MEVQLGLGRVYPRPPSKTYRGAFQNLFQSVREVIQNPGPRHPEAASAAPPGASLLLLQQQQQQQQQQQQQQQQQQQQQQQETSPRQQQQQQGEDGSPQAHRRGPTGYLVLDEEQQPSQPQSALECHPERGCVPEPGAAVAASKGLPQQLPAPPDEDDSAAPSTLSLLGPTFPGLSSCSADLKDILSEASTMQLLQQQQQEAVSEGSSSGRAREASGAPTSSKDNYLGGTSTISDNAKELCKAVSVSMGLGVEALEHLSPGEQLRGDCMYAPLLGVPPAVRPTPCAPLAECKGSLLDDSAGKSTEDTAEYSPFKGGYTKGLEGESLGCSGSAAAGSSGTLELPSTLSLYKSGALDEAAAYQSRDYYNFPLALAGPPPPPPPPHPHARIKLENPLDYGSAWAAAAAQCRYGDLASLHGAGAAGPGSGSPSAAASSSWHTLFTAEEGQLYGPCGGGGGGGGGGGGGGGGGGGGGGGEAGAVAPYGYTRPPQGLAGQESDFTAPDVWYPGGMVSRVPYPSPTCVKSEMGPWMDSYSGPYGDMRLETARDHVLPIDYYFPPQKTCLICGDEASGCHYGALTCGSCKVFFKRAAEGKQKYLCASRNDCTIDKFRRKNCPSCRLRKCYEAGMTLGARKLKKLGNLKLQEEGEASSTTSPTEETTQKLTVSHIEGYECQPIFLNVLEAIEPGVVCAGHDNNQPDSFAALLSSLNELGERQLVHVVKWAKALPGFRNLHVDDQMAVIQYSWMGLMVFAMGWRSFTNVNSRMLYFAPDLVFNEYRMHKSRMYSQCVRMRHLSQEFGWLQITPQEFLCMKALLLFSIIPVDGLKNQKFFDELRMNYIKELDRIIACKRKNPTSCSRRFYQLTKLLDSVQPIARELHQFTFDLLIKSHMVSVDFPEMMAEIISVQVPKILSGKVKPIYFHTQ
Assay: AR Binding Assay (competitive binding with 3H-DHT tracer)
Conditions: AR Binding IC50, hAR extract, 1 nM 3H-DHT, one hour at 4° C.; mean of multiple tests
pIC50: −log10 of the molar value.
Please mark y if the recorded pIC50 is equal to or greater than 7, and n if it falls below.

See these solved cases before continuing.
CC(Oc1ccc(C#N)c(C(F)(F)F)c1)c1cccc(O)c1 (single isomer, unassigned; (+)) [Example 10] : y
C[C@@H](Oc1ccc(C#N)cc1Cl)c1ccccc1 [Example 38] : n
C[C@H](Oc1ccc(C#N)c(C(F)(F)F)c1)c1ccccc1 [Example 2] : y
CCC(Oc1ccc(C#N)c(C(F)(F)F)c1)c1cccc(O)c1 (racemic) [Example 11] : y
C[C@@H](Oc1ccc(C#N)c(C(F)(F)F)c1)c1ccccc1 [Example 3] : y

As a next step, examine the molecule that follows.
Prompt: Reported pIC50 at or above 7? CC(Oc1ccc(C#N)c(C(F)(F)F)c1)c1cccc(O)c1 (single isomer, unassigned; (-)) [Example 9]
Completion: y
